# System: Chenopodium album
# test method notes: Test Example 3: herbicidal effect test by treatment of dry field farming soil (one day after seeding)
# Assay type: in vivo
# conditions used: 120 g/10a active ingredient, evaluated 14 days after treatment
Each entry below carries its reported herbicidal rate, Chenopodium album.

{"compound": "CCC(C)Cn1oc(=O)c(Cc2ccccc2N(C(=O)OC)S(=O)(=O)C(F)(F)F)c1C (stereo not shown)", "target or system": "Chenopodium album", "herbicidal rate, Chenopodium album (%)": 50}
{"compound": "CCC(C)n1oc(=O)c(Cc2ccccc2N(C(=O)C(C)C)S(=O)(=O)C(F)(F)F)c1C (stereo not shown)", "target or system": "Chenopodium album", "herbicidal rate, Chenopodium album (%)": 90}
{"compound": "CSCCn1oc(=O)c(Cc2ccccc2N(C(=O)OCC(C)C)S(=O)(=O)C(F)(F)F)c1C", "target or system": "Chenopodium album", "herbicidal rate, Chenopodium album (%)": 90}
{"compound": "COCC(C)n1oc(=O)c(Cc2ccccc2N(C(C)=O)S(=O)(=O)C(F)(F)F)c1C (stereo not shown)", "target or system": "Chenopodium album", "herbicidal rate, Chenopodium album (%)": 90}
{"compound": "COCC(C)n1oc(=O)c(Cc2ccccc2N(S(C)(=O)=O)S(=O)(=O)C(F)(F)F)c1C (stereo not shown)", "target or system": "Chenopodium album", "herbicidal rate, Chenopodium album (%)": 90}
{"compound": "COCC(C)n1oc(=O)c(Cc2ccccc2N(C(=O)C2CC2)S(=O)(=O)C(F)(F)F)c1C (stereo not shown)", "target or system": "Chenopodium album", "herbicidal rate, Chenopodium album (%)": 90}
{"compound": "CCCC(c1ccccc1)n1oc(=O)c(Cc2ccccc2NS(=O)(=O)C(F)(F)F)c1C (stereo not shown)", "target or system": "Chenopodium album", "herbicidal rate, Chenopodium album (%)": 0}

* * *

# Test system: broad leaf weeds (Lindernia pyxidaria and Monochoria vaginalis)
# test method notes: Test Example 1: herbicidal effect test by treatment of rice paddy soil (immediately after seeding)
# Format: in vivo
# conditions used: Monochoria vaginalis, 120 g/10a active ingredient, dry weight vs untreated area, 14 days after treatment
Binary classification by Herbicidal rate (%) Monochoria vaginalis, with 90% as an inclusive lower bound for satisfied; all other cases are not satisfied.

{"compound": "CC(C)Cn1oc(=O)c(Cc2ccccc2NS(=O)(=O)C(F)(F)F)c1C(F)(F)F", "group label": "not satisfied"}
{"compound": "Cc1c(Cc2ccccc2N(S(=O)(=O)C(F)(F)F)S(=O)(=O)C(F)(F)F)c(=O)on1Cc1ccc(OC(F)(F)F)cc1", "group label": "not satisfied"}
{"compound": "C=CC(C)n1oc(=O)c(Cc2ccccc2N(S(=O)(=O)C(F)(F)F)S(=O)(=O)C(F)(F)F)c1C (stereo not drawn)", "group label": "not satisfied"}
{"compound": "CCC(CC)n1oc(=O)c(Cc2ccccc2NS(=O)(=O)C(F)(F)F)c1C", "group label": "satisfied"}
{"compound": "Cc1c(Cc2ccccc2N(S(=O)(=O)C(F)(F)F)S(=O)(=O)C(F)(F)F)c(=O)on1C(C)c1ccc(F)cc1F (stereo not drawn)", "group label": "not satisfied"}
{"compound": "Cc1c(Cc2ccccc2N(S(=O)(=O)C(F)(F)F)S(=O)(=O)C(F)(F)F)c(=O)on1CCC(C)(C)C", "group label": "not satisfied"}
{"compound": "CCCC(C)n1oc(=O)c(Cc2ccccc2N(C(=O)C2CC2)S(=O)(=O)C(F)(F)F)c1C (stereo not drawn)", "group label": "not satisfied"}
{"compound": "CCCC(CC)n1oc(=O)c(Cc2ccccc2N(S(=O)(=O)C(F)(F)F)S(=O)(=O)C(F)(F)F)c1C (stereo not drawn)", "group label": "satisfied"}
{"compound": "CCCCC(C)n1oc(=O)c(Cc2ccccc2N(S(=O)(=O)C(F)(F)F)S(=O)(=O)C(F)(F)F)c1C (stereo not drawn)", "group label": "satisfied"}
{"compound": "Cc1c(Cc2ccccc2NS(=O)(=O)C(F)(F)F)c(=O)on1C(C)c1ccccc1Cl (stereo not drawn)", "group label": "satisfied"}
{"compound": "Cc1c(Cc2ccccc2N(S(=O)(=O)C(F)(F)F)S(=O)(=O)C(F)(F)F)c(=O)on1C(C)C", "group label": "satisfied"}
{"compound": "CCCCC(CC)Cn1oc(=O)c(Cc2ccccc2N(S(=O)(=O)C(F)(F)F)S(=O)(=O)C(F)(F)F)c1C (stereo not drawn)", "group label": "not satisfied"}
{"compound": "Cc1c(Cc2ccccc2NS(=O)(=O)C(F)(F)F)c(=O)on1CCC(C)(C)C", "group label": "not satisfied"}
{"compound": "Cc1c(Cc2ccccc2NS(=O)(=O)C(F)(F)F)c(=O)on1CC(F)(F)c1ccccc1", "group label": "satisfied"}

Data origin, for the record: patent US11109593B2
